Tgt: Cytochrome P450 (CYP3A4) (Homo sapiens, UniProt P08684)
Construct: human liver microsome (0.1 mg protein/mL); from tissue; host or cells: human liver microsomes
Sequence (P08684 whole entry): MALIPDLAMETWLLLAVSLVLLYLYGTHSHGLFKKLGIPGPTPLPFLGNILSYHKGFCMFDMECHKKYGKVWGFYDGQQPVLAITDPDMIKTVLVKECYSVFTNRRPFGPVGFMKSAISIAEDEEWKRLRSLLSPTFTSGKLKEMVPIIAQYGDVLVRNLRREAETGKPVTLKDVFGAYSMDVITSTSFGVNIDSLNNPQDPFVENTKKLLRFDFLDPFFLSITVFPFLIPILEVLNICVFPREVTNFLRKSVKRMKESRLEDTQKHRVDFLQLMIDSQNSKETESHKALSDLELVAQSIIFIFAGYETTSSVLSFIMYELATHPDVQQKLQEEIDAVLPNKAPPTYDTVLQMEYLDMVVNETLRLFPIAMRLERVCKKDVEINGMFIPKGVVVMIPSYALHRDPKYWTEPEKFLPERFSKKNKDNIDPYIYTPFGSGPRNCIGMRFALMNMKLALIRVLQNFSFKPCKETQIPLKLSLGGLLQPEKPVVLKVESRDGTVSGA
Method Notes: Measurement of cytochrome P450 (CYP3A4) enzyme inhibition activity in human liver microsome (inhibition tests I and II, midazolam substrate)
Assay type: in vitro ADME
Stated Conditions: inhibition test II: 5 μM test compound preincubated 30 minutes with human liver microsome and NADPH, then 2 μM midazolam 20 minutes; relative to test I
Measure Name: II (%) Remaining Rate II

| Compound | II (%) Remaining Rate II |
| --- | --- |
| CSc1ccccc1CNc1ncc(C#N)c(NC[C@]23CC4C[C@H](C2)[C@@H](NC2CCNCC2)[C@@H](C4)C3)n1 (relative stereo) | 88 |
| CSc1ncccc1CNc1ncc(C#N)c(NC[C@]23CC4C[C@H](C2)[C@@H](NC2CCC(O)CC2)[C@@H](C4)C3)n1 (relative stereo) | 90 |
| CSc1ccccc1CNc1ncc(C#N)c(NC[C@]23CC4C[C@H](C2)[C@@H](NC[C@H]2CC[C@H](O)CC2)[C@@H](C4)C3)n1 | 87 |
| N#Cc1cnc(NCc2ccccc2Cl)nc1NC[C@]12CC3C[C@H](C1)[C@@H](NC1CCN(CCF)CC1)[C@@H](C3)C2 (relative stereo) | 85 |
| N#Cc1cnc(NCc2ccccc2Cl)nc1NC[C@]12CC3C[C@H](C1)[C@@H](NC[C@H]1CC[C@H](O)CC1)[C@@H](C3)C2 (relative stereo) | 83 |
| COc1ncccc1CNc1ncc(C#N)c(NC[C@]23CC4C[C@H](C2)[C@@H](NC[C@H]2CC[C@H](CO)CC2)[C@@H](C4)C3)n1 (relative stereo) | 91 |
